Provide the reported activity ALOMY sensitive of each item.
Test system: ALOMY sensitive (Alopecurus myosuroides)
assay-name: PE action on resistant weed biotypes, test method 8
Type: in vivo
conditions: PE application; g of AS/ha: (A) 90, (B) 1200, (C) 140, (A)+(B)+(C) 90 + 1200 + 140, iodosulfuron 10
Numbers only, in %.

Some entries whose results are on file:
{"molecule": "CCC(CC)Nc1c([N+](=O)[O-])cc(C)c(C)c1[N+](=O)[O-] [(B) pendimethalin]", "value-kind": "activity ALOMY sensitive", "quantitative-result": 30}
{"molecule": "COc1nc(C)nc(NC(=O)NS(=O)(=O)c2cc(I)ccc2C(=O)O)n1 [(C)^1 iodosulfuron, iodosulfuron]", "value-kind": "activity ALOMY sensitive", "quantitative-result": 90}
{"molecule": "CSc1nnc(C(C)(C)C)c(=O)n1N [(C) metribuzin]", "value-kind": "activity ALOMY sensitive", "quantitative-result": 85}

Shifting focus to the molecule that follows.
For the record CC(C)N(C(=O)COc1nnc(C(F)(F)F)s1)c1ccc(F)cc1 [(A) flufenacet] , what value of activity ALOMY sensitive is listed for ALOMY sensitive (Alopecurus myosuroides)?
80

Where these numbers come from: patent US20110152093A1
